- methodSummary: melting temperature; fluorescence melt of hairpins on a sequencing array, two-state fit, raised by 9.35 °C to match UV melts
- measurementContext: sodium 0.088 M
Recorded Tm determines the group label, using bottom range = under 50 °C, center range = from 50 °C up to 60 °C, top range = 60 °C and over

GTCCCTGGAAACAGGAAC ((.((((....)))).)); bottom range
GCAGTGCGAAAGCGCCGC ((.(.((....)).).)); center range
GCGACTTCGAAAGAACGC (((..(((....)))))); bottom range
GCTGAGCGAAAGCTGCGC ((..(((....)))..)); center range
GTATGGACGAAAGTCTAC (((..(((....)))))); bottom range
GCGTCGCGAAAGCCGCGC (((..((....))..))); top range
GCGATGCGAAAGCACTGC ((..(((....)))..)); bottom range
GATCACTCGCGTGATC ((((((....)))))); center range
GAATATGGAAACATATCC (.(((((....))))).); bottom range
GTGGCTGGAAACGGCTAC ((.((.(....).)).)); bottom range

From here, focus on the item given below.
Please report the category associated with GTGTCCGAAAGGATCCAC ((((((....)))..))) , nothing else.
bottom range

---

- methodSummary: folding enthalpy; higher = less favourable; fluorescence melt of hairpins on a sequencing array, two-state fit
- measurementContext: sodium 0.088 M
Measured folding enthalpy of individual entries
// units = kcal/mol; emit number, no label

Some entries whose results are on file:
GTATAAGAAATTATAC ((((((....)))))); -14.5
GCAGACGAAAGTCGTTGC ((((((....)))..))); -14.1
GGTTAACGAAAGTTTACC (((.(((....))).))); -33.3

Write down folding enthalpy measured for item GGTGGACGAAAGTCGACC (((.(((....))).)))
-39.9

Write down folding enthalpy measured for item GCCAGTGGAAACGCTGGC (((((.(....).)))))
-41.8

Write down folding enthalpy measured for item GGAGCTGGAAACAGTTCC (((.(((....))).)))
-37

Write down folding enthalpy measured for item GTTCCCGAAAGGGTAAC ((((((....))).)))
-17.6

Write down folding enthalpy measured for item GTATTTCGAAAGAACTAC (((.(((....))).)))
-19.2

Write down folding enthalpy measured for item GTCGATGGAAACATCAAC ((.((((....)))).))
-17.6

Write down folding enthalpy measured for item GAGAAGACGAAAGTCCTC (((..(((....))))))
-13.2

Write down folding enthalpy measured for item GGTGCTGGAAACAACACC ((((.((....)).))))
-37.6

Write down folding enthalpy measured for item GCGCCCGTGCGC ((((....))))
-10.3

Write down folding enthalpy measured for item CGGTCGGAAACGAGGCCG ((((((....)))..)))
-23.7

Write down folding enthalpy measured for item GGTTCCGAAAGGAATACC ((((((....)))..)))
-14.1

Write down folding enthalpy measured for item GATCCATGAATGGATC ((((((....))))))
-45.1

Write down folding enthalpy measured for item GCGTACTCGAAAGAGCGC (((..(((....))))))
-28.6

Write down folding enthalpy measured for item GTCATCGAAAGATCAGAC ((((((....)))..)))
-16.7

Write down folding enthalpy measured for item GCGAATCGAAAGATCCGC (((.(((....))).)))
-47

Write down folding enthalpy measured for item GATCAGTACGCTGATC ((((((....))))))
-44.1

---

- methodSummary: folding enthalpy; higher = less favourable; fluorescence melt of hairpins on a sequencing array, two-state fit
- measurementContext: sodium 0.088 M
Label scheme for folding enthalpy: lower than -20 kcal/mol is false (0), -20 kcal/mol and above is true (1).

Worked examples follow.
GATCGAGACATCGATC ((((((....)))))); false (0)
GTCCGGGCGAAAGCCGAC (((..(((....)))))); true (1)
GTTGTTGGAAACAGCAAC ((((.((....)).)))); true (1)
GTTTTTGGAAACAGAAAC ((((.((....)).)))); false (0)
GCACCGCGAAAGCTGGGC ((.(.((....)).).)); true (1)
GCGTCATCACGC ((((....)))); false (0)

Kindly determine if folding enthalpy recorded for GCTGATACGAAAGTAAGC (((..(((....)))))) is above or exactly -20 kcal/mol.
true (1)

Kindly determine if folding enthalpy recorded for GCACCCGAAAGGGGGTGC ((((((....)))..))) is above or exactly -20 kcal/mol.
false (0)

Kindly determine if folding enthalpy recorded for GATCAATCCCTTGATC ((((((....)))))) is above or exactly -20 kcal/mol.
false (0)

Kindly determine if folding enthalpy recorded for GATAAGACGAAAGTCATC (((..(((....)))))) is above or exactly -20 kcal/mol.
true (1)

Kindly determine if folding enthalpy recorded for GCTCATGGAAACATGAGC (((((((....))))))) is above or exactly -20 kcal/mol.
false (0)

Kindly determine if folding enthalpy recorded for GATTACGGAAACGTAATC (((((((....))))))) is above or exactly -20 kcal/mol.
false (0)

---

- methodSummary: melting temperature; fluorescence melt of hairpins on a sequencing array, two-state fit, raised by 9.35 °C to match UV melts
- measurementContext: sodium 0.088 M
Measured Tm of individual entries
// units = °C; emit number, no label

Write down Tm measured for item GAGAGTGAAAACTCTC ((((((....))))))
53.9

---

- methodSummary: folding enthalpy; higher = less favourable; fluorescence melt of hairpins on a sequencing array, two-state fit
- measurementContext: sodium 0.088 M
Label scheme for folding enthalpy: lower than -20 kcal/mol is -1, -20 kcal/mol and above is 1.

GATCTCGGTGAGATC ((((((...)))))); 1
GTGCGTGGAAACGCGTAC ((.((.(....).)).)); 1
GGGTCTGGAAACAAACCC ((((.((....)).)))); -1

Kindly determine if folding enthalpy recorded for GCATGCGAAAGCACGTGC ((((((....)))..))) is above or exactly -20 kcal/mol.
1

Kindly determine if folding enthalpy recorded for GATCCTGGATAGGATC ((((((....)))))) is above or exactly -20 kcal/mol.
-1

Kindly determine if folding enthalpy recorded for GATCATATAAATGATC ((((((....)))))) is above or exactly -20 kcal/mol.
-1

Kindly determine if folding enthalpy recorded for CGGCCGGAAACGGCCCG ((((((....))).))) is above or exactly -20 kcal/mol.
1

Kindly determine if folding enthalpy recorded for GGGAGCGAAAGCTGCCCC ((((((....)))..))) is above or exactly -20 kcal/mol.
1

---

- methodSummary: melting temperature; fluorescence melt of hairpins on a sequencing array, two-state fit, raised by 9.35 °C to match UV melts
- measurementContext: sodium 0.088 M
Measured Tm of individual entries
// units = °C; emit number, no label

GCCCCAGGAAACTGGGAC (.(((((....))))).); 46.1
GCTCTCGAAAGAGTTAGC ((((((....)))..))); 35.3
GGCGTAGGAAACTGCGCC ((((.((....)).)))); 62.3

Write down Tm measured for item GGCTGTGGAAACATGGCC (((..((....))..)))
49.5

Write down Tm measured for item GCAACAGGAAACTGTTAC (.(((((....))))).)
34

---

Measured Tm of individual entries
- methodSummary: melting temperature; fluorescence melt of hairpins on a sequencing array, two-state fit, raised by 9.35 °C to match UV melts
- measurementContext: sodium 0.088 M
// units = °C; emit number, no label

Some entries whose results are on file:
GATCCGTTATCGGATC ((((((....)))))); 59.2
GCTCGCGAAAGCGGCAGC ((((((....)))..))); 48.9
GATGCTGGAAACAGTATC (((.(((....))).))); 47
GATCCGCGAAAGCGCATC (((.(((....))).))); 36.5
GATCCCGCCCGGGATC ((((((....)))))); 67.1

Write down Tm measured for item GCGAACATCGC ((((...))))
45.6

Write down Tm measured for item GTGCGTGGAAACGCGTAC ((.((.(....).)).))
42.7

---

- methodSummary: folding enthalpy; higher = less favourable; fluorescence melt of hairpins on a sequencing array, two-state fit
- measurementContext: sodium 0.088 M
Measured folding enthalpy of individual entries
// units = kcal/mol; emit number, no label

GAGGTGAAAACCTC (((((....))))); -22.7
GCAAAGCGAAAGCGGTGC (((..((....))..))); -19.8
GAAACCGAAAGGTGGTTC ((((((....)))..))); -11.8
GTAGCTGAAAAGCTAC ((((((....)))))); -37.9
GAAGTGGGAAACCGCTTC ((((.((....)).)))); -31.4

Write down folding enthalpy measured for item GTTCGCACGAAAGTGAAC (((..(((....))))))
-16.3

Write down folding enthalpy measured for item GGTTTAGGAAACTAAGCC ((.((((....)))).))
-27.6

Write down folding enthalpy measured for item GATCACCTAAGTGATC ((((((....))))))
-38.9

Write down folding enthalpy measured for item GCGGAAGCGAAAGCTCGC (((..(((....))))))
-31.5

Write down folding enthalpy measured for item GCAAGAGGAAACTCTTGC (((((((....)))))))
-40.5

Write down folding enthalpy measured for item GCTAAGCGAAAGCTAAGC (((.(((....))).)))
-41.1

Write down folding enthalpy measured for item GATGACCCGAAAGGGATC (((..(((....))))))
-11.7

Write down folding enthalpy measured for item GATGTACGAAAGTAGATC (((.(((....))).)))
-30.5

Write down folding enthalpy measured for item GCTTACGAAAGTAGTAGC ((((((....)))..)))
-27.9

Write down folding enthalpy measured for item GTACACCGAAAGGTTAC (((.(((....))))))
-20.5

Write down folding enthalpy measured for item GGCTATGGAAACATAGTC (.(((((....))))).)
-34.7

Write down folding enthalpy measured for item GCAAGGCGAAAGCATAGC ((.(.((....)).).))
-14.8

Write down folding enthalpy measured for item GATCCAACCTGGATC ((((((...))))))
-31

Write down folding enthalpy measured for item GATCCGCCTTCGGATC ((((((....))))))
-44.3

These data points were gathered from the array DNA melting data of Ke et al. (doi:10.1101/2024.01.08.574731).
